Reference source: patent US11021444B2

Overview of reported pIC50 across a group of compounds:
biological target: recombinant RSV complex (Human respiratory syncytial virus A, UniProt P28887); assay: RSV Polymerase Inhibition Assay; assay type: biochemical
Sequence (P28887 whole entry): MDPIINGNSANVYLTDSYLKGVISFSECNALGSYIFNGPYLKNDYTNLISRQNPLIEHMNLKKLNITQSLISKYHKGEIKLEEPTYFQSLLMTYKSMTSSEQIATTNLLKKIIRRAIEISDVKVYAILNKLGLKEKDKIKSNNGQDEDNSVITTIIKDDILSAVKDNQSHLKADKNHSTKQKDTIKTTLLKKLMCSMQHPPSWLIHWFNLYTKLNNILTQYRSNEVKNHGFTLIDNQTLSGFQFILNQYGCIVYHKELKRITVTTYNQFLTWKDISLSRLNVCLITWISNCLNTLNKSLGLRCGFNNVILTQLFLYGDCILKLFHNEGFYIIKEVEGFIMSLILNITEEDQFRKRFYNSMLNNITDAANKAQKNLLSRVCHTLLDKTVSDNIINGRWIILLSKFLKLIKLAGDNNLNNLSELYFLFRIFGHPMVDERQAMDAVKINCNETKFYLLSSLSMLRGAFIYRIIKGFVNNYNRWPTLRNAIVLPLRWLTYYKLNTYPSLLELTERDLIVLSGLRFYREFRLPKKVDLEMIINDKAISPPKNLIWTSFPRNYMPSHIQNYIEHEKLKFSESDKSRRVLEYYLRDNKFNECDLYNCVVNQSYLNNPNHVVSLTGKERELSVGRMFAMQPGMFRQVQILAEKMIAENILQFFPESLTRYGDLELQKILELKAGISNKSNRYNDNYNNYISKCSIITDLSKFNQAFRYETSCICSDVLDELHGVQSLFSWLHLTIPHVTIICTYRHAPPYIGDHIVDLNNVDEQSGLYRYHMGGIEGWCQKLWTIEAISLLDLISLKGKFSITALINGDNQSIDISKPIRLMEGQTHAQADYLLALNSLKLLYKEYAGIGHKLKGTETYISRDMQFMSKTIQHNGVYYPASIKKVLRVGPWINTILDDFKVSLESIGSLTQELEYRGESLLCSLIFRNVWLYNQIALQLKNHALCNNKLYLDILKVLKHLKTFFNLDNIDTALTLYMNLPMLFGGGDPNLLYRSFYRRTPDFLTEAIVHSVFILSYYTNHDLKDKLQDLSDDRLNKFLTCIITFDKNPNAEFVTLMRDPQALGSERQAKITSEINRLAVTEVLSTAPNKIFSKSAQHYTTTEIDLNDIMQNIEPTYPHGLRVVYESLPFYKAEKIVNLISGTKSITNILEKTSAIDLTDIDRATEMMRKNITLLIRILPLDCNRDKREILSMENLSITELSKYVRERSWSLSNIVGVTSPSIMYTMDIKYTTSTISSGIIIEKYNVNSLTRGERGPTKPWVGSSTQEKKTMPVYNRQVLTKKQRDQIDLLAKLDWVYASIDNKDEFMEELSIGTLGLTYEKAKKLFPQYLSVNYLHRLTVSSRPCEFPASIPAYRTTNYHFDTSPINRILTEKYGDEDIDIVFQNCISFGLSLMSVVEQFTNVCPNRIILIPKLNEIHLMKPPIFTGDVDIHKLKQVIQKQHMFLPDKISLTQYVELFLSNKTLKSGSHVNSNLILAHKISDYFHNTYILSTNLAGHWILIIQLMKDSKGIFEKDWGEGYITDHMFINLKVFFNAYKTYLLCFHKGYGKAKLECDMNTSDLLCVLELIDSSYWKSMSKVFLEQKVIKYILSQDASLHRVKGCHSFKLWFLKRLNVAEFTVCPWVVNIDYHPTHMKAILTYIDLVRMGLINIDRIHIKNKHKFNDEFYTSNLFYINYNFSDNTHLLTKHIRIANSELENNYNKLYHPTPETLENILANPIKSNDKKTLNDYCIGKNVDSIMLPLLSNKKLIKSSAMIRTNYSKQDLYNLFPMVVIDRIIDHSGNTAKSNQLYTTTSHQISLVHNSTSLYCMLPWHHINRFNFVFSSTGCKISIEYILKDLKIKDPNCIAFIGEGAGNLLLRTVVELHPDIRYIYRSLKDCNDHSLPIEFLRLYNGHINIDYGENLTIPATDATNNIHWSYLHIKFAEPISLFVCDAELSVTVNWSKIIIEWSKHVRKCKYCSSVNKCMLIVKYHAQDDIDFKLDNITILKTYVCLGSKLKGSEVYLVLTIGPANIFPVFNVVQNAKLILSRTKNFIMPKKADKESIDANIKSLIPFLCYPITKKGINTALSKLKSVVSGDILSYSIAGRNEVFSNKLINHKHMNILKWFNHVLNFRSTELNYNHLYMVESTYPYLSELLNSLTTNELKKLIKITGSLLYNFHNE
Sequence (P03421 whole entry, further chain): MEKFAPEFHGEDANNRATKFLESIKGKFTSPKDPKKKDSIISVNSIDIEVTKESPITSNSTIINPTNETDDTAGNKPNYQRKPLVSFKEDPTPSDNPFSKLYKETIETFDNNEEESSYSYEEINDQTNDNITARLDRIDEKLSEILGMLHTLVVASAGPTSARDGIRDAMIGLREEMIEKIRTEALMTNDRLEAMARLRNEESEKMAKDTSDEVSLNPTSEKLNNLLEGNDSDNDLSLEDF
pIC50: −log10 of the molar value.

| Compound | pIC50 |
| --- | --- |
| COc1cc(C(=O)NCC(O)(c2cc3c(c(-c4ccc(F)c(Cl)c4)n2)OCC3(C)N)C(F)(F)F)ccc1OC1CC1 (stereo not drawn) | > 6.00 |
| COc1cc(C(=O)NC[C@](O)(c2cc(C(C)(C)N)cc(-c3ccc(F)cc3)n2)C(F)(F)F)ccc1OC[C@@H](C)O | > 6.00 |
| COc1cc(C(=O)NCC(C)(O)c2ccc(OC)c(-c3ccc(F)c(Cl)c3)n2)ccc1-c1ccncc1 (stereo not drawn) | > 6.00 |
| COc1cc(C(=O)NCC(O)(c2cc(C(C)(C)NC3COC3)cc(-c3ccc(F)cc3)n2)C(F)(F)F)ccc1OC1CC1 (stereo not drawn) | > 6.00 |
| COc1cc(C(=O)NCC(O)(c2cc(C(C)(C)N)cc(-c3ccc(F)c(Cl)c3)n2)C(F)(F)F)ccc1OCCO (stereo not drawn) | > 6.00 |
| COc1cc(C(=O)NCC(O)(c2cc(C(C)(C)N)cc(-c3ccc(F)c(Cl)c3)n2)C(F)(F)F)ccc1OC1CC(F)C1 (stereo not drawn) | > 6.00 |
| COc1cc(C(=O)NC[C@@](O)(c2cc(C(C)(C)N)cc(-c3ccc(F)cc3)n2)C(F)(F)F)ccc1OC[C@@H](C)O | > 6.00 |
| Cc1nc(C(=O)NCC(O)(c2cc(C(C)(C)N)cc(-c3ccc(F)c(Cl)c3)n2)C(F)(F)F)cs1 (stereo not drawn) | > 6.00 |
| CC(C)(N)c1cc(-c2ccc(F)cc2)nc(C(O)(CNC(=O)c2ccc3oc(=O)[nH]c3c2)C(F)(F)F)c1 (stereo not drawn) | > 6.00 |
| COc1cc(C(=O)NCC(O)(c2cc(C(C)(N)CF)cc(-c3ccc(F)cc3)n2)C(F)(F)F)ccc1OCCO (stereo not drawn) [Compound 676] | > 6.00 |
| COc1cc(C(=O)NCC(O)(c2cc3c(c(-c4ccc(F)c(Cl)c4)n2)OCC=C3)C2CC2)ccc1OCCO (stereo not drawn) | > 6.00 |
| COc1cc(C(=O)NCC(O)(CN2CCCCC2)c2ccc(OC)c(-c3ccc(F)c(Cl)c3)n2)ccc1OCCO (stereo not drawn) | > 5.00 |
| COc1cc(C(=O)NCC(O)(c2cc3c(c(-c4ccc(Br)cc4)n2)OCC3(C)N)C(F)(F)F)ccc1OCCO (stereo not drawn) | > 6.00 |
| CCOc1ccc(C(=O)NCC(O)c2ccc(OC)c(-c3ccc(F)c(Cl)c3)n2)cc1OC (stereo not drawn) | > 5.00 |
| COc1cc(C(=O)NCC(O)(c2ccc(OC)c(-c3ccc(F)c(Cl)c3)n2)C(F)F)ccc1OC1CC1 (stereo not drawn) | > 6.00 |
| CNC(C)(C)c1cc(-c2ccc(F)c(Cl)c2)nc(C(O)(CNC(=O)c2ccc(OC[C@@H](C)O)c(OC)c2)C(F)(F)F)c1 (stereo partly drawn) | > 6.00 |
| COCc1ccc(C(=O)NCC(C)(O)c2ccc(OC)c(-c3ccc(F)c(Cl)c3)n2)cc1OC (stereo not drawn) | > 5.00 |
| COc1cc(C(=O)NCC(O)(c2cc(C(C)(C)N)cc(-c3ccc(F)c(Cl)c3)n2)C(F)(F)F)ccc1NS(C)(=O)=O (stereo not drawn) | > 6.00 |
| COc1cc(C(=O)NCC(O)(c2cc(CNC(C)=O)cc(-c3ccc(F)c(Cl)c3)n2)C(F)(F)F)ccc1OC1CC1 (stereo not drawn) | > 6.00 |
| COc1cc(C(=O)NCC(O)(c2cc(CN)cc(-c3ccc(F)cc3)n2)C(F)(F)F)ccc1OC1CC1 (stereo not drawn) | > 6.00 |
| COc1cc(C(=O)NCC(O)(c2cc(C(C)(C)NC(C)=O)cc(-c3ccc(F)cc3)n2)C(F)(F)F)ccc1OCCO (stereo not drawn) | > 6.00 |
| COc1cc(C(=O)NC[C@](O)(c2cc(C(C)(C)N)cc(-c3ccc(F)cc3)n2)C(F)(F)F)ccc1OCC(N)=O | > 6.00 |
| COc1cc(C(=O)NCC(O)(CNC2CC2)c2ccc(OC)c(-c3ccc(F)c(Cl)c3)n2)ccc1OCCO (stereo not drawn) | > 6.00 |
| COc1cc(C(=O)NC[C@](O)(c2cc(C(C)(C)N)cc(-c3ccc(F)c(Cl)c3)n2)C(F)(F)F)ccc1OC[C@@H](C)O | > 6.00 |
| COc1cc(C(=O)NCC(O)(c2cc3c(c(-c4ccc(F)cc4)n2)OCC3(C)N)C(F)(F)F)ccc1OC1CC1 (stereo not drawn) | > 6.00 |
| CNC(C)(C)c1cc(-c2ccc(F)c(Cl)c2)nc(C(O)(CNC(=O)c2ccc(OC3CC3)c(OC)c2)C(F)(F)F)c1 (stereo not drawn) | > 6.00 |
| COc1cc(C(=O)NCC(N)(c2ccc(OC)c(-c3ccc(F)c(Cl)c3)n2)C(F)(F)F)ccc1OC1CC1 (stereo not drawn) | > 6.00 |
